Test: in vitro
Settings: PAMPA
Description: Effective permeability of compound by PAMPA assay
Here the recorded Papp is given for each entry.
Your answer is read as ×10⁻⁶ cm/s, so omit the unit and give the number.

// solved cases for Papp follow
INSERT INTO results (compound, value_reported) VALUES
  ('O=C(c1ccccc1)N1CCN(c2nc3ccccc3s2)CC1', 40.4),
  ('O=C(c1ccc(F)cc1)N1CCC(c2cc3ncccc3[nH]2)C1 (stereo unspecified)', 1.58),
  ('N#Cc1ccc(C(=O)N2CCCC(c3cc4ncccc4[nH]3)C2)cc1 (stereo unspecified)', 0.379);

Could you tell me which Papp is on file for O=C(c1ccc(C(F)(F)F)nc1)N1CCCC(c2cc3ncccc3[nH]2)C1 (stereo unspecified) ?
0.887

Could you tell me which Papp is on file for "O=C(Cc1ccccc1)N1CCN(c2nc3ccccc3s2)CC1" ?
15.3

Could you tell me which Papp is on file for "CCN(CCC(=O)Nc1cccnc1)C(=O)c1ccc(F)cc1" ?
5.23

Could you tell me which Papp is on file for "O=C(CCc1nc2ncc(Cl)cc2[nH]1)Nc1ccccc1" ?
5.97

Could you tell me which Papp is on file for "O=C(NCCc1nc2ncc(Cl)cc2[nH]1)c1ccccc1" ?
8.77

Could you tell me which Papp is on file for O=C(c1ccccn1)N1CCCC(c2cc3ncccc3[nH]2)C1 (stereo unspecified) ?
2.33

Could you tell me which Papp is on file for "O=C(c1ccccc1)N1CC=C(c2cc3ncccc3[nH]2)CC1" ?
1.65

---

Here the recorded selectivity ratio is given for each entry.
Assay: in vitro
Details: human, MRC5 SV2 cells
Description: Selectivity index, ratio of IC50 for human MRC5 SV2 cells to IC50 for Trypanosoma cruzi Tulahuen CL2 amastigotes infected in human MRC5 SV2 cells
Give the figure only, with no unit attached.

// solved cases for selectivity ratio follow
INSERT INTO results (compound, value_reported) VALUES
  ('Cc1ccoc1C(=O)N1CCCC(c2cc3ncccc3[nH]2)C1 (stereo unspecified)', 3),
  ('O=C(c1ccccc1)N1CC=C(c2cc3ncccc3[nH]2)CC1', 26.8),
  ('O=C(c1cc(C(F)(F)F)no1)N1CCOC(c2cc3ncccc3[nH]2)C1 (stereo unspecified)', 1.8),
  ('COc1cc(OC)c2cc(C(=O)N3CCCC(c4cc5ncccc5[nH]4)C3)[nH]c2c1 (stereo unspecified)', 18.8),
  ('N#Cc1ccc(C(=O)N2CCCC(c3cc4ncccc4[nH]3)C2)cc1 (stereo unspecified)', 2.49);

Next compound, selectivity ratio to be filled in.
Could you tell me which selectivity ratio is on file for COc1cccc(C(=O)N2CCCC(c3cc4ncccc4[nH]3)C2)c1OC (stereo unspecified) ?
8

---

Here the recorded CC50 at 72 h is given for each entry.
Assay: in vitro
Details: human, MRC5 SV2 cells
Description: Cytotoxicity against human MRC5 SV2 cells assessed as reduction in cell viability incubated for 3 days by fluorimetry

INSERT INTO results (smi, value_reported) VALUES
  ('CC(=O)O[C@H]1C(=O)[C@@]2(C)[C@H]([C@H](OC(=O)c3ccccc3)[C@]3(O)C[C@H](OC(=O)[C@H](O)[C@@H](NC(=O)c4ccccc4)c4ccccc4)C(C)=C1C3(C)C)[C@]1(OC(C)=O)CO[C@@H]1C[C@@H]2O', '< 0.01 µM');

Next compound, CC50 at 72 h to be filled in.
Could you tell me which CC50 at 72 h is on file for "CC[C@]1(O)C[C@@H]2CN(CCc3c([nH]c4ccccc34)[C@@](C(=O)OC)(c3cc4c(cc3OC)N(C)[C@H]3[C@@](O)(C(=O)OC)[C@H](OC(C)=O)[C@]5(CC)C=CCN6CC[C@]43[C@@H]65)C2)C1" ?
< 0.01 µM

---

Experiment: in vitro
Conditions: mouse, liver microsomes
Description: Metabolic stability in mouse liver microsomes assessed as intrinsic clearance at 0.5 uM incubated for 30 mins by LC-MS/MS analysis
Threshold-based label: CLint scaled at 0.5 h, 0.5 µM under 1000 mL/min/kg gives 1, CLint scaled at 0.5 h, 0.5 µM not under 1000 mL/min/kg gives 0.

// known answers, use as guide
INSERT INTO assay_data (molecule, class_name) VALUES
  ('O=C(c1ccccc1)N1CCC(O)(c2cc3ncccc3[nH]2)CC1', 1),
  ('O=C(c1ccc(C(F)(F)F)nc1)N1CCCC(c2cc3ncccc3[nH]2)C1 (stereo not given)', 1),
  ('O=C(c1cc(C(F)(F)F)no1)N1CCCC(c2cc3ncccc3[nH]2)C1 (stereo not given)', 0);

Is it true that CLint scaled at 0.5 h, 0.5 µM reported for "CCN(CCc1nc2ncc(Cl)cc2[nH]1)C(=O)c1ccc(F)cc1" is less than 1000 mL/min/kg?
1

Is it true that CLint scaled at 0.5 h, 0.5 µM reported for O=C(c1ccc(F)cc1)N1CCCC(c2cc3nc(C(F)(F)F)ccc3[nH]2)C1 (stereo not given) is less than 1000 mL/min/kg?
0

---

Test: in vitro
Details: mouse, liver microsomes
Mark condition met for reported CLint scaled at 0.5 h, 0.5 µM of 100 L/h/kg or greater; mark condition not met for anything smaller.

INSERT INTO measurements (compound, class_name) VALUES
  ('CC(C)(C)OC(=O)N1CCCC(c2cn3cccnc3n2)C1 (stereo unspecified)', 'condition met'),
  ('O=C(c1ccc(F)cc1)N1CCCC(c2cc3nc(Cl)ccc3[nH]2)C1 (stereo unspecified)', 'condition not met'),
  ('COc1cc(OC)c2cc(C(=O)N3CCCC(c4cc5ncccc5[nH]4)C3)[nH]c2c1 (stereo unspecified)', 'condition met'),
  ('O=C(NCCc1nc2ncc(Cl)cc2[nH]1)c1ccccc1', 'condition not met'),
  ('CC(C)c1cc(C(=O)N2CCCC(c3cc4ncccc4[nH]3)C2)on1 (stereo unspecified)', 'condition not met'),
  ('CCN(C(=O)CCc1nc2ncccc2[nH]1)c1ccccc1', 'condition not met');

Below: the item to evaluate.
Does the compound COc1ccc(Cl)cc1C(=O)N1CCCC(c2cc3ncccc3[nH]2)C1 (stereo unspecified) have recorded CLint scaled at 0.5 h, 0.5 µM that is 100 L/h/kg or more?
condition met

---

Assay: in vitro
Details: human, liver microsomes
Description: Metabolic stability in human liver microsomes assessed as intrinsic clearance at 0.5 uM incubated for 30 mins by LC-MS/MS analysis
Measured property: microsomal CLint at 0.5 h, 0.5 µM (µL/min/mg)
Your answer is read as µL/min/mg, so omit the unit and give the number.

INSERT INTO measurements (molecule, measured_property, value_reported) VALUES
  ('CCN(C(=O)CCc1nc2ncccc2[nH]1)c1ccccc1', 'microsomal CLint at 0.5 h, 0.5 µM', 35.1);

Next molecule, microsomal CLint at 0.5 h, 0.5 µM to be filled in.
Could you tell me which microsomal CLint at 0.5 h, 0.5 µM is on file for O=C(c1ccc(F)cc1)N1CCCC(c2cc3ncccc3[nH]2)C1 (stereo unspecified) ?
38.3

---

Experiment: in vitro
Conditions: mouse, peritoneal macrophages
Description: Selectivity index, ratio of IC50 for mouse peritoneal macrophage to IC50 for Leishmania infantum MHOM/MA(BE)/67/ITMAP263 infected in mouse peritoneal macrophage
Measured property: selectivity ratio
Give the figure only, with no unit attached.

// solved cases for selectivity ratio follow
INSERT INTO assay_data (compound, value_reported) VALUES
  ('COc1cc(OC)c2cc(C(=O)N3CCCC(c4cc5ncccc5[nH]4)C3)[nH]c2c1 (stereo not given)', 1.07),
  ('COc1ccc(OC)c2[nH]c(C(=O)N3CCCC(c4cc5ncccc5[nH]4)C3)cc12 (stereo not given)', 2.35),
  ('O=C(c1cc(C2CC2)no1)N1CCCC(c2cc3ncccc3[nH]2)C1 (stereo not given)', 1.73),
  ('O=C(c1cc(C(F)(F)F)no1)N1CCCC(c2cc3ncc(-c4ccccc4)cc3[nH]2)C1 (stereo not given)', 1.79),
  ('O=C(c1ccc(F)cc1)N1CCCC(c2cc3ncc(Cl)cc3[nH]2)C1 (stereo not given)', 1.9);

Could you tell me which selectivity ratio is on file for "O=C(c1ccccc1)N1C=C(c2cc3ncccc3[nH]2)CCC1" ?
1.84

Could you tell me which selectivity ratio is on file for CC(C)c1cc(C(=O)N2CCCC(O)(c3cc4ncccc4[nH]3)C2)on1 (stereo not given) ?
1.14

Could you tell me which selectivity ratio is on file for "CC(C)c1cc(C(=O)N2CC=C(c3cc4ncccc4[nH]3)CC2)on1" ?
2.32

Could you tell me which selectivity ratio is on file for O=C(c1cc(C(F)(F)F)no1)N1CCCC(c2cc3nc(NCc4ccccc4)ccc3[nH]2)C1 (stereo not given) ?
1.07

Could you tell me which selectivity ratio is on file for "CN(C(=O)c1ccccc1)c1cccc(-c2cc3ncccc3[nH]2)c1" ?
0.707

---

Assay: in vitro
Conditions: PAMPA
Here the recorded Papp is given for each entry.

INSERT INTO measurements (molecule, measured_property, value_reported) VALUES
  ('O=C(c1cc(C(F)(F)F)no1)N1CCCC(c2cc3ncc(-c4ccccc4)cc3[nH]2)C1 (stereo unspecified)', 'Papp', '0.307 ×10⁻⁶ cm/s'),
  ('CC(C)(C)c1cc(C(=O)N2CCCC(c3cc4ncccc4[nH]3)C2)on1 (stereo unspecified)', 'Papp', '2.97 ×10⁻⁶ cm/s'),
  ('O=C(c1ccc(F)cc1)N1CCCC(c2cc3nc(N4CCCC4)ccc3[nH]2)C1 (stereo unspecified)', 'Papp', '0.152 to 0.228 ×10⁻⁶ cm/s');

Could you tell me which Papp is on file for CCC(=O)N1CCCC(c2nc3ncc(Cl)cc3[nH]2)C1 (stereo unspecified) ?
9.01 ×10⁻⁶ cm/s

Could you tell me which Papp is on file for O=C(c1cc(C(F)(F)F)no1)N1CCCC(c2cc3ncccc3[nH]2)C1 (stereo unspecified) ?
3.45 ×10⁻⁶ cm/s

Could you tell me which Papp is on file for CC(C)(C)OC(=O)N1CCCC(c2cn3nc(Cl)ccc3n2)C1 (stereo unspecified) ?
22.4 ×10⁻⁶ cm/s

Each recorded value in this set is attributed to ChEMBL document CHEMBL4342426.
